Where do the numbers come from? From ChEMBL document CHEMBL5346921.

Assay: Selectivity index, ratio of IC50 for cytotoxicity against human NCM460 cells to IC50 for antiproliferative activity against human HCT-116 cells
Type: toxicity, cell-based
Conditions: NCM460 cells and HCT-116 cells, read-out: Ratio IC50
PROPERTY_MEASURED: selectivity ratio

Memo: `NC(=O)c1ccccc1OCc1cccc(NC(=O)Cc2cccc(Br)c2)c1` , reported selectivity ratio: 14.4

selectivity ratio reported for this molecule `NC(=O)c1ccccc1OCc1cccc(NC(=O)Cc2ccccc2Cl)c1` : 4.48

Entry `NC(=O)c1ccccc1OCc1cccc(NC(=O)Nc2cccc(Br)c2)c1` — recorded selectivity ratio = 12.5

The molecule listed as `NC(=O)c1ccccc1NCc1cccc(NC(=O)c2ccccc2Cl)c1` has a reported selectivity ratio of 2.78

// sample `NC(=O)c1ccccc1NCc1cccc(NC(=O)c2cccc(Br)c2)c1` , its selectivity ratio was 12.9

For `NC(=O)c1ccccc1NCc1cccc(NC(=O)Cc2ccc(Br)cc2)c1` the molecule record lists selectivity ratio as 2.62
